B1: tRNA (parent)
chain: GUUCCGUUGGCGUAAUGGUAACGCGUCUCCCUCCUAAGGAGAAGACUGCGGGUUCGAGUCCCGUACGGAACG

Variants of: B1
Assay: yeast fitness relative to wild type (ratio to wild type); higher = fitter; tRNA-Arg(CCU), competitive growth, 37 C, YPD
Fewer inactive variants are shown than the library holds.
endpoint-name: yeast fitness
Just the number.

Request: yeast fitness for A14G A15G U54C ?
Result: 0.569

Request: For the variant A40C A42C G68C , what yeast fitness is on record?
Result: 0.569

Request: Look up yeast fitness for this variant: C29G C49U G58C
Result: 0.558

Request: // query yeast fitness value for entry U13A A40G
Result: 0.733

Request: Give its yeast fitness value. Item: C4U U8C
Result: 0.942

Request: Tell me the measured yeast fitness of G18C C66U , please.
Result: 0.59

Request: // lookup yeast fitness for C46U A69U
Result: 1.03

Request: Name the reported yeast fitness value associated with the variant U35G C49A
Result: 0.595

Request: Could you tell me which yeast fitness is on file for C24U A36G G58C C66G G68A ?
Result: 0.569

Request: Entry C24U A65U has what yeast fitness?
Result: 0.894

Request: What does the record list as yeast fitness for C5G C30A C31A C49U C55G ?
Result: 0.544

Request: Need yeast fitness, item G63C G67A
Result: 0.692
